# assay-system: Recombinant human DDR2 (Homo sapiens, UniProt Q16832)
# Construct: DDR2 (1.75 nM; aa427-855 containing a GST tag)
# Sequence (Q16832 427-855): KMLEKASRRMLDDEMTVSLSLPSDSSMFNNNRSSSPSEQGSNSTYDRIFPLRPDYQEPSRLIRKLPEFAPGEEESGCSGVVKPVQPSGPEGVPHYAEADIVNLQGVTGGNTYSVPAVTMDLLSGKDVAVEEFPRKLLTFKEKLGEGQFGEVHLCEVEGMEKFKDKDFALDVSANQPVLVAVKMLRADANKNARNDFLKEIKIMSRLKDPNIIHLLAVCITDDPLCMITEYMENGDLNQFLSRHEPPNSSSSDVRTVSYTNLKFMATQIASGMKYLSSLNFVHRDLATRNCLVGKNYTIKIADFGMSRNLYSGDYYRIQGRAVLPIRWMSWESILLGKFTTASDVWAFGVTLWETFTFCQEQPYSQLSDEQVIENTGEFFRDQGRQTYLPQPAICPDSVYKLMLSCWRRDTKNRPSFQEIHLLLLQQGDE
# experiment-notes: LanthaScreen Eu Kinase Binding Assay, DDR2
# assay-conditions: recombinant human DDR2 (1.75 nM; aa427-855, GST tag), Kinase Tracer 178 10 nM, time-resolved fluorescence, at least two independent replicates; read-out: DDR2 pIC50 (converted)
Entries and their IC50 values follow.

Reference set (3 entries):
> print(dat)
                      smiles.representation        result
1  CC(C)[C@H](NC(=O)Cn1ccc2cccc(Nc3ccc4c(cnn4C)c3)c2c1=O)C(F)(F)F  10 to 100 nM
2  Cn1ncc2cc(Nc3cccc4ccn(CC(=O)NCC(C)(C)O)c(=O)c34)ccc21     ≥ 1000 nM
3  Cn1ncc2cc(Nc3cccc4ccn(CC(=O)Nc5cccc(C(C)(C)N)c5)c(=O)c34)ccc21  10 to 100 nM

Let's switch to this compound now.
Input: Tell me IC50 reported for C[C@H](NC(=O)Cn1ccc2cccc(Nc3ccc4c(cnn4C)c3)c2c1=O)C(F)(F)F
Output: 10 to 100 nM
